Biological target: recombinant human liver glycogen phosphorylase (Homo sapiens, UniProt P06737)
Construct: made in house; host or cells: Sf9 insect cells (crude homogenate, diluted, used as the enzyme solution)
Sequence (P06737 whole entry): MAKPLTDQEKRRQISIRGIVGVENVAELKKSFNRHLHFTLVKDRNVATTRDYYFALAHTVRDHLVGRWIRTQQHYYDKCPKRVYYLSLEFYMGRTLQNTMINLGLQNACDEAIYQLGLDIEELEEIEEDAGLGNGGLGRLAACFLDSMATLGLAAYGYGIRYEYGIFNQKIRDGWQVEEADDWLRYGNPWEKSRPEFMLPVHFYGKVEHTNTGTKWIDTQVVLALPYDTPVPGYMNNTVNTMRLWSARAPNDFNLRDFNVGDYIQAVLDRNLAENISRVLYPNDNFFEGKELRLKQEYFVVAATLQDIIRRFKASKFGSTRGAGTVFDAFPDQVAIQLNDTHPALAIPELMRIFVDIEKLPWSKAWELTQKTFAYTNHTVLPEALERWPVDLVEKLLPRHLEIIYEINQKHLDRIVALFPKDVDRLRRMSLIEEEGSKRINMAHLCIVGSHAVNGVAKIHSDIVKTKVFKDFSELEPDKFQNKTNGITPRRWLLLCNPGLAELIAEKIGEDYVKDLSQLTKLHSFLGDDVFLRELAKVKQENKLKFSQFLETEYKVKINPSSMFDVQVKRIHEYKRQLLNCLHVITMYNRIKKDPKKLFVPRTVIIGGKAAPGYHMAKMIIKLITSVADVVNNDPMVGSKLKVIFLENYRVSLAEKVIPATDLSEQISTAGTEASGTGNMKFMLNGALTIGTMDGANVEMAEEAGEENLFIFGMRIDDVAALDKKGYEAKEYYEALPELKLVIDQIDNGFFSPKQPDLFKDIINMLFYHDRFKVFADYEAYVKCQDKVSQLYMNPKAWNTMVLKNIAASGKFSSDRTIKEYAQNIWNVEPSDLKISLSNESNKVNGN
Experiment: Measuring liver glycogen phosphorylase activity (forward reaction system, NADPH absorbance at 340 nm)
Assay type: biochemical
Settings: enzyme inhibitory activity with respect to liver glycogen phosphorylase; class symbols
pIC50: −log10 of the molar value.
pIC50 values, listed per item

Query block: Give pIC50 (recombinant human liver glycogen phosphorylase (Homo sapiens, UniProt P06737)) of the following molecule: CCCCN(Cc1ccccc1)C(=O)c1cc(NC(=O)c2cc(F)c(F)cc2Cl)[nH]n1 [Example 1-85]
Result block: > 7.00

Query block: Please do the same for O=C(NCc1ccc(N2CCC(O)CC2)nc1)c1cc(NC(=O)c2cc(F)c(F)cc2Cl)[nH]n1 [Example 1-138] as well.
Result block: > 7.00

Continuing:
Query block: Give pIC50 (recombinant human liver glycogen phosphorylase (Homo sapiens, UniProt P06737)) of the following molecule: CN(C)c1ccc(CNC(=O)c2cc(NC(=O)c3cc(F)c(F)cc3Cl)[nH]n2)cc1 [Example 3-24]
Result block: > 7.00

Query block: Please do the same for O=C(NCc1ccc(N2CCS(=O)(=O)CC2)nc1)c1cc(NC(=O)c2cc(F)c(F)cc2Cl)[nH]n1 [Example 1-154] as well.
Result block: > 7.00

Query block: Please do the same for Cc1nc(C)c(CNC(=O)c2cc(NC(=O)c3cc(F)c(F)cc3Cl)[nH]n2)o1 [Example 1-2-2, p-toluenesulfonate] as well.
Result block: > 7.00

Query block: Please do the same for CCN(Cc1ccncc1)C(=O)c1cc(NC(=O)c2cc(F)c(F)cc2Cl)[nH]n1 [Example 1-5] as well.
Result block: > 7.00

Query block: Please do the same for COc1ccc(CNC(=O)c2cc(NC(=O)c3cc(F)c(F)cc3Cl)[nH]n2)c(OC)c1 [Example 1-14] as well.
Result block: > 7.00
